Data origin: ChEMBL document CHEMBL5537199

Assay Method Text: Selectivity ratio of inhibition for PDE3A (M1 to Q1141 residues) (unknown origin) by IMAP assay to inhibition for PDE3B (M1 to E1112 residues) (unknown origin) by IMAP assay
Reported Selectivity ratio values for a set of molecules
Answer using only a numeral; do not append any unit.

The examples below pair each entry with its known result.
Exam item: I have this molecule here, `COc1ccc2c(OC)cc(C(=O)Nc3cc(B(O)O)cc(C(=O)NC(C)C)c3)nc2c1` , and I need its recorded Selectivity ratio.
Marked response: 15

Exam item: I have this molecule here, `COc1ccc2c(OC)cc(C(=O)Nc3cc(B(O)O)cc(C(=O)NCC(C)C)c3)nc2c1` , and I need its recorded Selectivity ratio.
Marked response: 14

Exam item: I have this molecule here, `CNC(=O)[C@@H](NC(=O)c1cc(NC(=O)c2cc(OC)c3ccccc3n2)cc(B(O)O)c1)C1CCCCC1` , and I need its recorded Selectivity ratio.
Marked response: 1.6

Exam item: I have this molecule here, `COc1ccc2c(OC)cc(C(=O)Nc3cc(B(O)O)cc(C(=O)N(C)C)c3)nc2c1` , and I need its recorded Selectivity ratio.
Marked response: 23

Exam item: I have this molecule here, `CNC(=O)[C@@H](NC(=O)c1cc(NC(=O)c2nccc3ccccc23)cc(B(O)O)c1)C1CCCCC1` , and I need its recorded Selectivity ratio.
Marked response: 2

New cases:
Exam item: I have this molecule here, `CNC(=O)[C@@H](NC(=O)c1cc(NC(=O)c2ccc3ccncc3n2)cc(B(O)O)c1)C1CCCCC1` , and I need its recorded Selectivity ratio.
Marked response: 0.5

Exam item: I have this molecule here, `CNC(=O)[C@@H](NC(=O)c1cc(NC(=O)c2cc(C)c3ccccc3n2)cc(B(O)O)c1)C1CCCCC1` , and I need its recorded Selectivity ratio.
Marked response: 0.7

Exam item: I have this molecule here, `COc1ccc2c(OC)cc(C(=O)Nc3cc(B(O)O)cc(C(=O)N(C)Cc4ccccc4)c3)nc2c1` , and I need its recorded Selectivity ratio.
Marked response: 21

Exam item: I have this molecule here, `CNC(=O)[C@@H](NC(=O)c1cc(NC(=O)c2ccc3cc(OC)ccc3c2)cc(B(O)O)c1)C1CCCCC1` , and I need its recorded Selectivity ratio.
Marked response: 1.3

Exam item: I have this molecule here, `CNC(=O)[C@@H](NC(=O)c1cc(NC(=O)c2cc3ccccc3cn2)cc(B(O)O)c1)C1CCCCC1` , and I need its recorded Selectivity ratio.
Marked response: 1

Exam item: I have this molecule here, `COc1ccc2c(OC)cc(C(=O)Nc3cc(B(O)O)cc(C(=O)N[C@@H](C(N)=O)C(C)C)c3)nc2c1` , and I need its recorded Selectivity ratio.
Marked response: 8.5

Exam item: I have this molecule here, `COc1ccc2c(OC)cc(C(=O)Nc3cc(B(O)O)cc(C(=O)N4Cc5ccncc5C4)c3)nc2c1` , and I need its recorded Selectivity ratio.
Marked response: 43

Exam item: I have this molecule here, CCNC(=O)N1CCCCC(NC(=O)c2cc(NC(=O)c3cc(C)cc(C)c3OC)cc(B(O)O)c2)C1 (centres undefined) , and I need its recorded Selectivity ratio.
Marked response: 2.6

###

IC50 data for cGMP-inhibited 3',5'-cyclic phosphodiesterase 3A (Homo sapiens, UniProt Q14432) follow.
Record the value in µM, omitting the unit from your answer.

The examples below pair each entry with its known result.
Exam item: What is its IC50 for cGMP-inhibited 3',5'-cyclic phosphodiesterase 3A (Homo sapiens, UniProt Q14432)? Entry: `CNC(=O)[C@H](NC(=O)c1cc(NC(=O)c2cc(OC)ccn2)cc(B(O)O)c1)C1CCCCC1`
Marked response: 50.1

Exam item: What is its IC50 for cGMP-inhibited 3',5'-cyclic phosphodiesterase 3A (Homo sapiens, UniProt Q14432)? Entry: `CNC(=O)[C@@H](NC(=O)c1cc(NC(=O)c2ccc3ccccc3n2)cc(B(O)O)c1)C1CCCCC1`
Marked response: 0.02

Exam item: What is its IC50 for cGMP-inhibited 3',5'-cyclic phosphodiesterase 3A (Homo sapiens, UniProt Q14432)? Entry: CCNC(=O)N1CCCCC(NC(=O)c2cc(NC(=O)c3cc(C)cc(C)c3OC)cc(B(O)O)c2)C1 (stereo not drawn)
Marked response: 0.501

New cases:
Exam item: What is its IC50 for cGMP-inhibited 3',5'-cyclic phosphodiesterase 3A (Homo sapiens, UniProt Q14432)? Entry: `COc1ccc2c(OC)cc(C(=O)Nc3cc(B(O)O)cc(C(=O)N4Cc5ccncc5C4)c3)nc2c1`
Marked response: 12.6

###

Assay Method Text: Selectivity ratio of inhibition for PDE3A (M1 to Q1141 residues) (unknown origin) by IMAP assay to inhibition for PDE3B (M1 to E1112 residues) (unknown origin) by IMAP assay
Reported Selectivity ratio values for a set of compounds
Answer using only a numeral; do not append any unit.

The examples below pair each entry with its known result.
Exam item: I have this compound here, `CNC(=O)[C@H](NC(=O)c1cc(NC(=O)c2cc(OC)c3ccc(OC)cc3n2)cc(B(O)O)c1)C1CCCCC1` , and I need its recorded Selectivity ratio.
Marked response: 37

Exam item: I have this compound here, `CNC(=O)[C@H](NC(=O)c1cc(NC(=O)c2cc(OC)ccn2)cc(B(O)O)c1)C1CCCCC1` , and I need its recorded Selectivity ratio.
Marked response: 1

Exam item: I have this compound here, `CNC(=O)[C@@H](NC(=O)c1cc(NC(=O)c2cnc3ccccc3c2)cc(B(O)O)c1)C1CCCCC1` , and I need its recorded Selectivity ratio.
Marked response: 0.7

New cases:
Exam item: I have this compound here, `COc1ccc2c(OC)cc(C(=O)Nc3cc(B(O)O)cc(C(=O)O)c3)nc2c1` , and I need its recorded Selectivity ratio.
Marked response: 3

###

Reported pIC50 values for a set of compounds
Experimental System: cGMP-inhibited 3',5'-cyclic phosphodiesterase 3B (Homo sapiens)
Sequence (Q13370 whole entry): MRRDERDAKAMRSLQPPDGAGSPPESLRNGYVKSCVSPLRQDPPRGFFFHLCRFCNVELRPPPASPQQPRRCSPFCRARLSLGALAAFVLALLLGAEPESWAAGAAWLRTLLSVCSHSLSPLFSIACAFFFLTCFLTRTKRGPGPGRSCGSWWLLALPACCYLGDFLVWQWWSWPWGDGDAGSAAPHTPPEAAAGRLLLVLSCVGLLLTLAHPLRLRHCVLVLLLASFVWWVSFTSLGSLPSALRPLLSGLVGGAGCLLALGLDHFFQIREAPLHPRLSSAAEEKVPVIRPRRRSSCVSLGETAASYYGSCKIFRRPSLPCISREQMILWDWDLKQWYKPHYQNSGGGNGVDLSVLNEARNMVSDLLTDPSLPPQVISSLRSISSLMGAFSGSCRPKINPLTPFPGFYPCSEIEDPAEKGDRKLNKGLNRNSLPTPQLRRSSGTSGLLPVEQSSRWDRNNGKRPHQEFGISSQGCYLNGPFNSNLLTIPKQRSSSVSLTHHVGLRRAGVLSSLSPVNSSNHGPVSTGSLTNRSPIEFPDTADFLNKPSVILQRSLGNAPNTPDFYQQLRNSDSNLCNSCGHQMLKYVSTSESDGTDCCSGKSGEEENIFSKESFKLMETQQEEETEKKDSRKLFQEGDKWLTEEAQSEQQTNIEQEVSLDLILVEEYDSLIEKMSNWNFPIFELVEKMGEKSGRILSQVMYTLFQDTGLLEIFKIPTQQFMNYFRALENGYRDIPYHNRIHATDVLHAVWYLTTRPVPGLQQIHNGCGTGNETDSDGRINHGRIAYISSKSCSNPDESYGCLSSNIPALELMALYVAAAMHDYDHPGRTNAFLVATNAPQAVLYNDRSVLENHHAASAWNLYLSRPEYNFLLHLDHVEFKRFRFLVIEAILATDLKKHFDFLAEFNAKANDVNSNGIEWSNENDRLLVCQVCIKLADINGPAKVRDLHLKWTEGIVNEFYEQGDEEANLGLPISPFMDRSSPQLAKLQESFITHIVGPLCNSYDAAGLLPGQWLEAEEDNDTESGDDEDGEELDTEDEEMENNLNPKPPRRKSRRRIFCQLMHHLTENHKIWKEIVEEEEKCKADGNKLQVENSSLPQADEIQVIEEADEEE
Remember the convention: pIC50 equals -log10 of concentration in molar.

Exam item: What is its pIC50 for cGMP-inhibited 3',5'-cyclic phosphodiesterase 3B (Homo sapiens)? Entry: `COc1ccc2c(OC)cc(C(=O)Nc3cc(B(O)O)cc(C(=O)N(C)Cc4ccccc4)c3)nc2c1`
Marked response: 6.20

Exam item: What is its pIC50 for cGMP-inhibited 3',5'-cyclic phosphodiesterase 3B (Homo sapiens)? Entry: `COc1ccc2c(OC)cc(C(=O)Nc3cc(B(O)O)cc(C(=O)N(C)C)c3)nc2c1`
Marked response: 5.70

Exam item: What is its pIC50 for cGMP-inhibited 3',5'-cyclic phosphodiesterase 3B (Homo sapiens)? Entry: `COc1ccc2c(OC)cc(C(=O)Nc3cc(B(O)O)cc(C(=O)N[C@H](C(N)=O)C(C)C)c3)nc2c1`
Marked response: 6.50

Exam item: What is its pIC50 for cGMP-inhibited 3',5'-cyclic phosphodiesterase 3B (Homo sapiens)? Entry: `CNC(=O)[C@@H](NC(=O)c1cc(NC(=O)c2cc(OC)c3ccc(OC)cc3n2)cc(B(O)O)c1)C1CCCCC1`
Marked response: 7.10

Exam item: What is its pIC50 for cGMP-inhibited 3',5'-cyclic phosphodiesterase 3B (Homo sapiens)? Entry: `CNC(=O)[C@H](NC(=O)c1cc(NC(=O)c2cc(Cl)cc3c2OCC(=O)N3)cc(B(O)O)c1)C1CCCCC1`
Marked response: 5.80

Exam item: What is its pIC50 for cGMP-inhibited 3',5'-cyclic phosphodiesterase 3B (Homo sapiens)? Entry: `CNC(=O)[C@@H](C)NC(=O)c1cc(NC(=O)c2cc(OC)c3ccc(OC)cc3n2)cc(B(O)O)c1`
Marked response: 6.00

Exam item: What is its pIC50 for cGMP-inhibited 3',5'-cyclic phosphodiesterase 3B (Homo sapiens)? Entry: `CNC(=O)[C@@H](NC(=O)c1cc(NC(=O)c2cc3ccccc3cn2)cc(B(O)O)c1)C1CCCCC1`
Marked response: 5.50

###

Assay Method Text: Selectivity ratio of inhibition for PDE3A (M1 to Q1141 residues) (unknown origin) by IMAP assay to inhibition for PDE3B (M1 to E1112 residues) (unknown origin) by IMAP assay
Reported Selectivity ratio values for a set of compounds
Answer using only a numeral; do not append any unit.

The examples below pair each entry with its known result.
Exam item: I have this compound here, `CNC(=O)[C@@H](NC(=O)c1cc(NC(=O)c2cc3c(c(OC)c2)OCC(=O)N3)cc(B(O)O)c1)C1CCCCC1` , and I need its recorded Selectivity ratio.
Marked response: 0.4

Exam item: I have this compound here, `CNC(=O)[C@@H](NC(=O)c1cc(NC(=O)c2cc(C)cc(C)c2OC)cc(B(O)O)c1)C1CCCCC1` , and I need its recorded Selectivity ratio.
Marked response: 3.4

Exam item: I have this compound here, `CNC(=O)[C@H](NC(=O)c1cc(NC(=O)c2nc(C)ncc2OC)cc(B(O)O)c1)C1CCCCC1` , and I need its recorded Selectivity ratio.
Marked response: 0.8

New cases:
Exam item: I have this compound here, `CNC(=O)[C@@H](NC(=O)c1cc(NC(=O)c2cc(OC)c3cc(OC)ccc3n2)cc(B(O)O)c1)C1CCCCC1` , and I need its recorded Selectivity ratio.
Marked response: 0.8
